Assay overview: Microsomal stability assay, rat liver microsomes
Format: in vitro ADME
Text: Microsomal Stability Assay
Readout kind: RLM (µL/min/mg)

The following molecules have reported results that may help.
1. C=CC[C@H](NC(=O)COC)[C@H](O)CN[C@H]1CC2(CCC2)Oc2c1cc(CC(C)(C)C)cc2-n1ccnc1 [Example 216] : 150
2. CCC[C@H](NC(=O)[C@@H](C)OC)[C@H](O)CN[C@H]1CC2(CCC2)Oc2c1cc(CC(C)(C)C)nc2Cl [compound 223] : 249
3. CC[C@H](NC(C)=O)[C@H](O)CN[C@H]1CC2(CCC2)Oc2ncc(CC(C)(C)C)cc21 [compound 213] : 25

(I) C=CC[C@H](NC(=O)COC)[C@H](O)CN[C@H]1CC2(CCC2)Oc2c(-c3ccncc3)cc(CC(C)(C)C)cc21 [compound 219]
(II) C=CC[C@H](NC(C)=O)[C@H](O)CN[C@H]1CC2(CCC2)Oc2c1cc(CC(C)(C)C)nc2Nc1ccccc1 [compound 229]
Problem: Given the entries I and II , determine which has the lower reported RLM. Please identify the chosen entry by its label.
II

(a) C=CC[C@H](NC(=O)COC)[C@H](O)CN[C@H]1CC2(CCC2)Oc2c(-c3cncs3)cc(CC(C)(C)C)cc21 [compound 217]
(b) C=CC[C@H](NC(=O)COC)[C@H](O)CN[C@H]1CC2(CCC2)Oc2c1cc(CC(C)(C)C)nc2Nc1ccccc1 [compound 230]
Of a and b , which shows the smaller RLM value? To answer, give the label that identifies your chosen option.
b

(1) C=CC[C@H](NC(=O)COC)[C@H](O)CN[C@H]1CC2(CCC2)Oc2c(-c3cccnc3)cc(CC(C)(C)C)cc21 [compound 220]
(2) C#CC[C@H](NC(=O)[C@@H](C)OC)[C@H](O)CN[C@H]1CC2(CCC2)Oc2c1cc(CC(C)(C)C)nc2NC [compound 222]
// compare measured RLM, left 1 , right 2 , return larger Selection: enter the item's label.
1

# credit: patent US8633315B2
